Each recorded value in this set is attributed to paper PMC6155299.

# Tested on: HepG-2 cells
# protocol.summary: MTT assay, cytotoxic effects on HepG-2 cells
# Format: cell-based, human
# condition.context: Homo sapiens, HepG2, HepG-2 cell line, 48 h, read-out: IC50 HepG-2
pIC50: −log10 of the molar value.
# pIC50 listing for each entry below

{"compound": "COc1cc(C2CC(c3ccccc3O)=NN2)cc(Br)c1O (stereo not shown)", "pIC50": "< 4.30"}
{"compound": "COc1cc(C2CC(c3ccccc3O)=NN2c2ccccc2)cc(OC)c1O (stereo not shown)", "pIC50": 4.55}
{"compound": "COc1cc(C2CC(c3ccccc3O)=NN2C(=O)c2cccs2)cc(OC)c1O (stereo not shown)", "pIC50": 5.35}
{"compound": "COc1cc(C2CC(c3ccccc3O)=NN2C(=O)c2cccc([N+](=O)[O-])c2)cc(OC)c1O (stereo not shown)", "pIC50": "< 4.30"}
{"compound": "COc1cc(C2CC(c3ccccc3O)=NN2C(=O)c2cc([N+](=O)[O-])cc([N+](=O)[O-])c2)cc(OC)c1O (stereo not shown)", "pIC50": "< 4.30"}

Quick note, pIC50 for COc1cc(C2CC(c3ccc([N+](=O)[O-])cc3)=NN2)cc(Br)c1O (stereo not shown) landed at < 4.30

Kindly note the recorded pIC50 for COc1cc(C2CC(c3ccccc3O)=NN2S(=O)(=O)c2ccc(C)cc2)cc(OC)c1O (stereo not shown) , which is 4.92

Entry COc1cc(C2CC(c3ccc(C)cc3)=NN2c2ccccc2)cc(OC)c1OC (stereo not shown) — recorded pIC50 = < 4.30

Measured pIC50 of COc1cc(C2CC(c3ccc([N+](=O)[O-])cc3)=NN2)cc(OC)c1O (stereo not shown) : < 4.30

compound COc1cc(C2CC(c3ccccc3O)=NN2C(=O)c2ccc([N+](=O)[O-])cc2)cc(OC)c1O (stereo not shown) , pIC50 observed: < 4.30
